B1: SPOPL (parent)
chain: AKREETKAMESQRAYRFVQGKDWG

Variants of: B1
method description: protein stability index of a GFP-peptide fusion (GPS, HEK-293T) (PSI 1-6); higher = more stable;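 note: lentivirally expressed fusions sorted by FACS into six bins by GFP to DsRed ratio, PSI derived from sequencing read proportions per bin multiplied by bin number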
study conditions: c terminus: a fixed tail appended
measured endpoint: protein stability index

[[record]]
alteration = "K7Y"
recorded_number = 3.5

[[record]]
alteration = "G20W"
recorded_number = 2.72

[[record]]
alteration = "G20R"
recorded_number = 3.59

[[record]]
alteration = "A8R"
recorded_number = 3.43

[[record]]
alteration = "W23E"
recorded_number = 5.14

[[record]]
alteration = "G20Q"
recorded_number = 4.14

[[record]]
alteration = "K7W"
recorded_number = 2.04

[[record]]
alteration = "G20L"
recorded_number = 2.88

[[record]]
alteration = "T6D"
recorded_number = 3.18

[[record]]
alteration = "K2A"
recorded_number = 3.03

[[record]]
alteration = "G20H"
recorded_number = 3.33

[[record]]
alteration = "M9D"
recorded_number = 3.71

[[record]]
alteration = "K21M"
recorded_number = 3.43

[[record]]
alteration = "Q19K"
recorded_number = 3.43

[[record]]
alteration = "M9Q"
recorded_number = 3.69

[[record]]
alteration = "K21S"
recorded_number = 2.67

[[record]]
alteration = "V18S"
recorded_number = 4.19

[[record]]
alteration = "S11C"
recorded_number = 2.23

[[record]]
alteration = "Y15M"
recorded_number = 3.02

[[record]]
alteration = "R3F"
recorded_number = 2.87

[[record]]
alteration = "M9V"
recorded_number = 3.43

[[record]]
alteration = "G24Q"
recorded_number = 4.07

[[record]]
alteration = "Y15I"
recorded_number = 4.26

[[record]]
alteration = "K21E"
recorded_number = 3.46

[[record]]
alteration = "R3A"
recorded_number = 3.49

[[record]]
alteration = "Y15C"
recorded_number = 2.9

[[record]]
alteration = "Q12L"
recorded_number = 1.82

[[record]]
alteration = "M9G"
recorded_number = 3.45

[[record]]
alteration = "G24S"
recorded_number = 3.49

[[record]]
alteration = "Q12K"
recorded_number = 2.94

[[record]]
alteration = "G24C"
recorded_number = 2.18

[[record]]
alteration = "K7I"
recorded_number = 2.72

[[record]]
alteration = "E4L"
recorded_number = 2.26

[[record]]
alteration = "A14T"
recorded_number = 3.63

[[record]]
alteration = "E5G"
recorded_number = 2.35

[[record]]
alteration = "E4K"
recorded_number = 2.77

[[record]]
alteration = "W23A"
recorded_number = 4.8

[[record]]
alteration = "R16I"
recorded_number = 3.42

[[record]]
alteration = "E5D"
recorded_number = 4.16

